Several reports have described Ki for Matrix metalloproteinase-9 (Homo sapiens); a selection of those results is presented here.
Answers are plain numbers, in nM.

Below, each entry is followed by its recorded Ki result.
>  <smiles_str>
O=C1NCCCC[C@@H](C(=O)NCC(=O)N2CCOCC2)NC(=O)[C@H](Cc2ccc(-c3c(F)cccc3F)cc2)[C@@H](C(=O)NO)CCCO1

>  <measurement_target>
Matrix metalloproteinase-9 (Homo sapiens)
Sequence (P14780 whole entry): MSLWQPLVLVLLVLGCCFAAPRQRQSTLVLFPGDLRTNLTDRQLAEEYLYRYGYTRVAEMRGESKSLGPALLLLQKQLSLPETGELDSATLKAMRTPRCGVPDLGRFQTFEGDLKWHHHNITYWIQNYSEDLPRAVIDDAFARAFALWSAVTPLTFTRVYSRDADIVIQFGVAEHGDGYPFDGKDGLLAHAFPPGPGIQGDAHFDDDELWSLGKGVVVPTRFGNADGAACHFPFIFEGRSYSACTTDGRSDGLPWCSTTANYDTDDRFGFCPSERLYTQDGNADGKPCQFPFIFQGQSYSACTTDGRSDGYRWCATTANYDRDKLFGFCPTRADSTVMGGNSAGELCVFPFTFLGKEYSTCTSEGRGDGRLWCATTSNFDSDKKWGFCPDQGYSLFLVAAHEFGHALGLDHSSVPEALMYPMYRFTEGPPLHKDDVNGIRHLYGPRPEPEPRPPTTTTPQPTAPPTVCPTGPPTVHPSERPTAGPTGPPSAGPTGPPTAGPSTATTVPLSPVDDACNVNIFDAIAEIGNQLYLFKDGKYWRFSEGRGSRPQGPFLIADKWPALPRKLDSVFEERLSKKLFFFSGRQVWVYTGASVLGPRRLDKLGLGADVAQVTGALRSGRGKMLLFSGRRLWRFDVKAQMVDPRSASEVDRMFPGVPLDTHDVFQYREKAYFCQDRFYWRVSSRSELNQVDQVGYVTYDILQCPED

>  <Ki [nM]>
21

$$$$
>  <smiles_str>
O=C(C[C@@H](Cc1cccc(O)c1)C(=O)N[C@H]1c2ccccc2C[C@H]1O)NO

>  <measurement_target>
Matrix metalloproteinase-9 (Homo sapiens)

>  <Ki [nM]>
3320

$$$$

Task: Any idea what Ki was measured for CC(C)C[C@H](CC(=O)NO)C(=O)N[C@@H](Cc1c[nH]c2ccccc12)C(=O)NCc1ccco1 ?
Output: 1.7
